species on record: Rattus norvegicus; experiment: Inhibition constant on radiolabeled [125I]FIDA1 binding to rat striatal membranes; parameters: species or system Striatum, Membrane
pKi: −log10 of the molar value.
Measured quantity: pKi

Compound | Measured quantity | Experimental value
CCc1cc(Cl)c(OC)c(C(=O)NC[C@@H]2CCCN2CC)c1O [ETICLOPRIDE] | pKi | 10.85
CCN1CCC[C@H]1CNC(=O)c1c(O)c(Cl)cc(Cl)c1OC [RACLOPRIDE] | pKi | 8.64

====

Below: a set of entries, each annotated with reported pKi.
target: UniProt:P61169; assay: Inhibition constant against dopamine receptor D2 in rat
Sequence (P61169 whole entry): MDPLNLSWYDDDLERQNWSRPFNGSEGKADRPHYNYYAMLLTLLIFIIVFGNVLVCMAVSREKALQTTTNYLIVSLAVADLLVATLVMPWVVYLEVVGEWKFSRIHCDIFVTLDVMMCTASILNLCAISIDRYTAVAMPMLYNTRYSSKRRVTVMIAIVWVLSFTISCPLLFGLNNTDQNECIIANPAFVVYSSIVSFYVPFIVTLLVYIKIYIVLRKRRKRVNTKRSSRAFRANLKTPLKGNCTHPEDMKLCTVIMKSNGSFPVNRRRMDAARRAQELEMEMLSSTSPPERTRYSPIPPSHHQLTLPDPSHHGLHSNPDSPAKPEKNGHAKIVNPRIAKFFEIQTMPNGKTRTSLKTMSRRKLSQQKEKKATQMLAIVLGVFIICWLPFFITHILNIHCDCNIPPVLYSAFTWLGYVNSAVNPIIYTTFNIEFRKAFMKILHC
pKi: −log10 of the molar value.
Measured quantity: pKi

Molecule | Target entity | Measured quantity | Experimental value
CCN1CCC[C@H]1CNC(=O)c1c(O)c(I)cc(OC)c1OC [IOXIPRIDE] | UniProt:P61169 | pKi | 10.72
CCN1CCC[C@H]1CNC(=O)c1c(OC)ccc(S(N)(=O)=O)c1I [IODOSULPIRIDE] | UniProt:P61169 | pKi | 8.82
CCN1CCC[C@H]1CNC(=O)c1cc(I)ccc1OC [IODOPRIDE] | UniProt:P61169 | pKi | 8.52
